System: Amaranthus viridis
Assay text: Herbicidal activity against Amaranthus viridis assessed as disease control at 1000 ppm treated in foliage during 15 to 20 days relative to control
Assay type: functional
Exercise: state measured Activity for each of the compounds provided.

Consider the following illustrative entries.
Compound	Experimental value
Clc1ccc2nc(-c3ccccn3)[nH]c2c1	<39%
c1ccc2nc(-c3nc4ccccc4s3)ccc2c1	<39%
COc1ccc2[nH]c(-c3ccncc3)nc2c1	<39%
CCOc1ccc2sc(-c3ccccn3)nc2c1	40%
Cc1cccc2[nH]c(-c3ccccn3)nc12	<39%

Next compound, please.
Entry under test: Clc1ccc2sc(-c3ccccn3)nc2c1 . Its Activity was 60%

###

Tested on: Botrytis cinerea
Assay text: Antifungal activity against Botryotinia fuckeliana after 7 days
Assay type: functional
Set-up: concentration or dose not given beside the values
Exercise: state measured Activity for each of the compounds provided.

Compound	Experimental target	Activity
FC(F)(F)c1ccc2sc(-c3ccccn3)nc2c1	Botrytis cinerea	<39%

Count: 2. Required value per item: Activity.
1. Clc1ccc2sc(-c3ccccn3)nc2c1
2. Cc1ccc2nc(-c3ccccn3)[nH]c2c1

1: <39%; 2: <39%

###

System: Botrytis cinerea
Assay text: Antifungal activity against Botryotinia fuckeliana after 7 days
Assay type: functional
Parameters: concentration or dose not given beside the values
Reported endpoint: Activity

Compound	Reported endpoint	Experimental value
c1ccc(-c2nc3ccccc3o2)nc1	Activity	<39%
O=[N+]([O-])c1ccc2[nH]c(-c3ccccn3)nc2c1	Activity	<39%

Recorded Activity for CCOc1ccc2sc(-c3ccncc3)nc2c1 on Botrytis cinerea was <39%

The values you see were collected from ChEMBL document CHEMBL3045339.
